Can you tell me fluorescence intensity for the items I'm about to list?
Experiment: compound fluorescence in toxin protease inhibitor counterscreen, primary screen, artefact control for toxin protease inhibitor project, biochemical, multiplex microsphere, HTS (AID 624483)
Conditions: compound autofluorescence counterscreen, microsphere flow cytometry; active compounds read high
Out of some 360,000 compounds screened, about 11,000 (3.1%) were called active. Inconclusive results (about 2%) are left out. The full list was thinned out, with actives kept by preference.

Record CC1(C(=O)NS(=O)(=O)c2cccc(F)c2)CCN1C(=O)Cc1ccc(Cl)cc1Cl (stereo not drawn) . Reported fluorescence intensity: 3750 (inactive)

Record COc1ccc(-c2cc(NC(C)=O)c3ncc(-c4cc(OC)c(OC)c(OC)c4)n3c2)cn1 . Reported fluorescence intensity: 2720 (inactive)

Record COCCNc1nc(Nc2ccccc2Cl)c2sc(-c3ccccc3)cc2n1 . Reported fluorescence intensity: 3680 (inactive)

###

Test: compound fluorescence in toxin protease inhibitor counterscreen, primary screen, artefact control for toxin protease inhibitor project, biochemical, multiplex microsphere, HTS (AID 624483)
Settings: compound autofluorescence counterscreen, microsphere flow cytometry; active compounds read high
In all, about 360,000 compounds went through this assay and about 11,000 (3.1%) were called active. Roughly 2% stayed inconclusive and do not appear here. What follows is part of a selection rich in actives, with near analogues and random picks from the rest.
Returns MET if the recorded fluorescence intensity is greater than or equal to 4000, and NOT MET otherwise.

Ask | API: above_or_equal(metric=fluorescence intensity, cutoff=4000) for item O=C(Nc1cccc(C(=O)NC2CC2)c1)c1ccc(F)c(S(=O)(=O)N2CCOCC2)c1
Reply | MET

Ask | API: above_or_equal(metric=fluorescence intensity, cutoff=4000) for item CCN1CCN(CCCCOc2ccccc2F)CC1
Reply | MET

Ask | API: above_or_equal(metric=fluorescence intensity, cutoff=4000) for item Cc1oc(-c2ccccc2Cl)[n+]([O-])c1C
Reply | MET

Ask | API: above_or_equal(metric=fluorescence intensity, cutoff=4000) for item COc1ccccc1CNS(=O)(=O)c1ccc(C)cc1
Reply | NOT MET

Ask | API: above_or_equal(metric=fluorescence intensity, cutoff=4000) for item CN(C)C(=O)c1cccn(Cc2cccc(C(F)(F)F)c2)c1=O
Reply | MET

Ask | API: above_or_equal(metric=fluorescence intensity, cutoff=4000) for item COc1cccc(CNC(=O)[C@@H]2CCCN2C(=O)[C@@H]2CCCN2C(=O)c2ccccc2)c1
Reply | MET

Ask | API: above_or_equal(metric=fluorescence intensity, cutoff=4000) for item OC(c1ccc(F)cc1)c1ncc(-c2cccc(C(F)(F)F)c2)[nH]1 (centres undefined)
Reply | NOT MET

Ask | API: above_or_equal(metric=fluorescence intensity, cutoff=4000) for item CC(=O)C1=CCC(c2ccccc2)N(S(=O)(=O)c2ccc(C)cc2)C1 (centres undefined)
Reply | MET

Ask | API: above_or_equal(metric=fluorescence intensity, cutoff=4000) for item Fc1ccccc1OCCCCn1cncn1
Reply | MET

Ask | API: above_or_equal(metric=fluorescence intensity, cutoff=4000) for item CC(=O)c1cccc(-c2cnc3c(NC=O)cc(-c4ccccc4Oc4ccccc4)cn23)c1
Reply | NOT MET

Ask | API: above_or_equal(metric=fluorescence intensity, cutoff=4000) for item NC(=O)Cc1ccc2sc(-c3ccccc3)nc2c1
Reply | NOT MET

Ask | API: above_or_equal(metric=fluorescence intensity, cutoff=4000) for item Cc1ccc(S(=O)(=O)NCc2nc3ccccc3c(=O)n2N)cc1
Reply | MET

###

Test: compound fluorescence in toxin protease inhibitor counterscreen, primary screen, artefact control for toxin protease inhibitor project, biochemical, multiplex microsphere, HTS (AID 624483)
Conditions: compound autofluorescence counterscreen, microsphere flow cytometry
Among all 360,000 compounds or so, about 11,000 (3.1%) were called active. About 2% were inconclusive and are not listed. Rule as the data show it: active = fluorescence intensity above about 16000; inconclusive = no clear call, values can overlap the other calls; inactive = below that. The sample holds actives, similar compounds and a random draw of the others, so the mix is not that of the screen.
Assign a class; possible classes are y (active), n (inactive)

Ask | Outcome? CCCC1NC(=O)NC(C)=C1C(=O)OCC (stereo not drawn)
Reply | y

Ask | Outcome? O=C(c1ccc(F)cc1)N1CCCC(c2nc(-c3cccs3)no2)C1 (stereo not drawn)
Reply | n

Ask | Outcome? CC(=O)Nc1c2c(nn1-c1cccc(C)c1)CSC2
Reply | n

Ask | Outcome? CCOC(=O)C1=C(C)NC(C)=C(C(=O)OCC)C1C1=COCCO1
Reply | n

Ask | Outcome? CCCCC(C(=O)NC(C)(C)C)N(Cc1ccccc1)C(=O)c1snc(C(N)=O)c1N (stereo not drawn)
Reply | n

Ask | Outcome? Cc1cccc(-n2ncc(C#N)c2-n2cccc2)c1
Reply | y

Ask | Outcome? CCOC(=O)[C@]12CCCC=C1N(Cc1cccc3ccccc13)C(=O)[C@H](CC(=O)NCC13CC4CC(CC(C4)C1)C3)C2
Reply | n

Ask | Outcome? O=C(C1CCCO1)N(Cc1ccccc1)c1ccccc1 (stereo not drawn)
Reply | y

###

Assay: compound fluorescence in toxin protease inhibitor counterscreen, primary screen, artefact control for toxin protease inhibitor project, biochemical, multiplex microsphere, HTS (AID 624483)
Settings: compound autofluorescence counterscreen, microsphere flow cytometry; active compounds read high
Hit rate of the full screen: of about 360,000 compounds, about 11,000 (3.1%) were called active. Not shown: some 2% with an inconclusive outcome. The entries come from a sample that favours actives as a whole.
Can you tell me fluorescence intensity for the items I'm about to list?
// response body must contain only the number

Record CCN(CC)CCCC(C)n1c2nc(=O)[nH]c(=O)c-2nc2cc(Cl)ccc21 (stereo not drawn) . Reported fluorescence intensity: 3960

Record CC/S(CC1CC1(Cl)Cl)=N\S(=O)(=O)c1ccc(C)cc1 (stereo not drawn) . Reported fluorescence intensity: 19500

Record Cc1nccn1-c1ccc(NC(=O)[C@H]2O[C@@H](n3ccc(=O)[nH]c3=O)[C@H](O)[C@@H]2O)cc1 . Reported fluorescence intensity: 5140

Record CCOC(=O)N1CCC(NC(=O)Cc2cn(C)c3ccccc23)CC1 . Reported fluorescence intensity: 2810

Record O=C(Nc1ccccc1N1CCN(C(=O)c2ccccc2)CC1)c1ccco1 . Reported fluorescence intensity: 3700

Record Cc1ccc(S(=O)(=O)C2(S(=O)(=O)c3ccc(C)cc3)CCCC2)cc1 . Reported fluorescence intensity: 6800

Record CN1OC[C@@H]2CN(S(=O)(=O)c3cccc(C(F)(F)F)c3)[C@H](c3ccc(-c4cc5ccccc5o4)cc3)C[C@@H]21 . Reported fluorescence intensity: 3760

Record CCOC(=O)N1CCC(NC(=O)CCc2ccccc2)CC1 . Reported fluorescence intensity: 3630

Record Cn1cc(CCC(=O)NCc2ccc3c(c2)OCO3)c2ccccc21 . Reported fluorescence intensity: 22500

Record Cn1cc(CCC(=O)NC2CC2)c2ccccc21 . Reported fluorescence intensity: 3960

Record COc1ccccc1CNC(=O)c1cc(-c2cc(Cl)ccc2C)n[nH]1 . Reported fluorescence intensity: 3000

Record O=C(c1ccc2c(c1)OCO2)N1CCN(C(=O)c2ccco2)CC1 . Reported fluorescence intensity: 20500

Record COc1ccc(Br)c(Cn2c(C)c(C(=O)NCc3cccs3)sc2=O)c1 . Reported fluorescence intensity: 5140

Record O=C(NC(c1ccc(-c2ccccc2)cc1)c1cnccn1)C1CCN(CCOc2ccc(Cl)cc2Cl)CC1 (stereo not drawn) . Reported fluorescence intensity: 4380

Record O=CN1CCN(C(=O)c2ccc3c(c2)OCO3)CC1 . Reported fluorescence intensity: 6220

Record CN(C)CCN1CCN(c2cc(-c3cccc(Cl)c3)nc3ccnn23)CC1 . Reported fluorescence intensity: 3570

Record CCCC/S(C)=N/S(=O)(=O)c1ccc(C)cc1 (stereo not drawn) . Reported fluorescence intensity: 1940

Record O=C(c1ccco1)N1CCN(C(=S)Nc2cc(F)cc(F)c2)CC1 . Reported fluorescence intensity: 5420

###

Assay: compound fluorescence in toxin protease inhibitor counterscreen, primary screen, artefact control for toxin protease inhibitor project, biochemical, multiplex microsphere, HTS (AID 624483)
Details: compound autofluorescence counterscreen, microsphere flow cytometry; active compounds read high
About 11,000 (3.1%) of roughly 360,000 compounds were called active. Not shown: some 2% with an inconclusive outcome. The list comes from a sample in which actives are over-represented; it also holds close analogues and randomly drawn compounds.
Can you tell me fluorescence intensity for the items I'm about to list?
// response body must contain only the number

Record O=C(c1cc(S(=O)(=O)N2CCOCC2)ccc1Cl)N1CCOCC1 . Reported fluorescence intensity: 5390

Record COc1cc(NC(=O)C2CC(c3ccccc3O)=NO2)c(OC)cc1Cl (configuration not stated) . Reported fluorescence intensity: 3150

Record CCOc1ccc(NC(=S)N2CCCCCC2)cc1 . Reported fluorescence intensity: 4120

Record CCCS(=O)(=O)NC(=O)C1(C)CCCN(C(=O)c2cccs2)C1 (configuration not stated) . Reported fluorescence intensity: 3930

Record Cc1ccsc1-c1cc(C(=O)O)c2c(ccc3ccccc32)n1 . Reported fluorescence intensity: 3620

Record CCn1ncc(C2=NOC(C(=O)Nc3ccccc3C(=O)OC)C2)c1C (configuration not stated) . Reported fluorescence intensity: 21900

Record N#CC1=C(N)Oc2cc(N)ccc2C1c1ccccc1 (configuration not stated) . Reported fluorescence intensity: 4230
